Target: T1, human Claudin18.2 (human)
T1 construct: also called CLDN18.2
Assay: cell ELISA, Claudin18.2-expressing HEK293T cells
experimental.readout: EC50 (nM)
Reply with just the number (in nM).

Entry 232C5E3 (antibody, V domains shown, mouse hybridoma mAb) VH: QAYLQQSGAELVRSGASVKMSCKASGYTFTSHNIHWIKQTPGKGLEWIGYIYPGNGGTNYNQKFKAKATLTADTSSSTAYMQISSLTSEDSAVYFCARDYYGNSFAYWGQGTLVTVSA VL: DIMMTQSPSSLTETAGEKVSMSCKSSQSLLNSGNQKNYLTWYQQKPGQPPKLLIYWASTRESGVPDRFSGSGSGTDFTLTISSVQAEDLAVYYCQNGYRFPFTFGAGTKLELK : reported EC50 = ?
0.651
